SUBJECT_OF_TEST: SHP2-C SH2
PROTOCOL_NOTES: SH2 binding enrichment of the phosphorylated peptide, bacterial display (enrichment ratio); higher = better substrate or ligand; peptides without Tyr show the background;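 further: peptide library displayed on the E. coli surface as eCPX fusions, selected cells deep-sequenced, score is each peptide's frequency after selection divided by its frequency in the input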
Output schema: class label derived from SH2 binding enrichment. Mapping: range 1 (below 0.7), range 2 (0.7 to below 0.9), range 3 (0.9 or more)

seq_text="ISPPVYLTNEW [NRK_Y885]" class_assignment="range 3"
seq_text="TFGVAYRAKDK [CDK11B_Y453_V452A_YF]" class_assignment="range 1"
seq_text="YSGDCYRIQGR [DDR2_Y741_Y740C]" class_assignment="range 1"
seq_text="ELTTCYRKKCC [CCBE1_Y70]" class_assignment="range 2"
seq_text="ENKGVYVPMSG [IVD_Y277_L279P]" class_assignment="range 1"
seq_text="FRASFYRKGGC [ALK_Y1283_YF]" class_assignment="range 1"
seq_text="YRRITYYNWRH [PDE6B_Y556_H557Y]" class_assignment="range 1"
seq_text="AKLVQYFMEHH [PTPN11_Y80_E76K_YF]" class_assignment="range 3"
seq_text="FLGEEYVKAVG [TF_Y674_YF]" class_assignment="range 3"
seq_text="PPNSPYMGSSP [KCNT1_Y740_I741M]" class_assignment="range 2"
seq_text="FLTQHYDAEPQ [ANG_Y38_K41E]" class_assignment="range 1"
seq_text="EEGNPYYSSTR [MCCC2_Y520_A524T]" class_assignment="range 3"
seq_text="KHCEDYVCSFN [DSC1_Y846_YF]" class_assignment="range 2"
seq_text="ISRASYFRKGG [ALK_Y1282_Y1278S_YF]" class_assignment="range 1"
seq_text="ELTAKYLNFFQ [P3H4_Y181_YF]" class_assignment="range 3"
seq_text="CTTIHYSFMCN [TP53_Y234_N235S_YF]" class_assignment="range 3"
seq_text="VNYQPYRKHKY [TEX37_Y28_D24N]" class_assignment="range 2"
seq_text="AHPIIYDIIEA [PYKtide_D_2014]" class_assignment="range 1"
seq_text="CTTIHYNYMFN [TP53_Y234_C238F]" class_assignment="range 3"
seq_text="LVMFIYAISGM [SCN1A_Y1684_F1687S]" class_assignment="range 3"
seq_text="LGRKLYSIATP [ABHD12_Y345_A349T]" class_assignment="range 1"
seq_text="ASNFNYFFHRE [KCNA1_Y413_V408A_YF]" class_assignment="range 3"
seq_text="VDTFWYKLLKR [EPM2A_Y86_F88L]" class_assignment="range 1"
seq_text="CASQLCPRHKH [DCTN4_Y263_Y263C]" class_assignment="range 3"
seq_text="YAGRDYSLDEF [MYOF_Y1705_G1701A]" class_assignment="range 1"
seq_text="MGGSLYFSYPD [HIKESHI_Y55_V54L]" class_assignment="range 1"
seq_text="HIAKGYRRDNP [HARS1_Y156_V155G]" class_assignment="range 1"
seq_text="QDRTFYERVRT [SPEN_Y633_S635R_YF]" class_assignment="range 3"
seq_text="QLCVNYPGGYT [PROS1_Y259]" class_assignment="range 1"
seq_text="NKFVAYIESQG [KDM4B_Y34_YF]" class_assignment="range 2"
seq_text="PPSLSYLSFEG [EXOSC3_Y143_A139P]" class_assignment="range 2"
seq_text="MGSYNYLGFPR [SPTLC2_Y178_A182P]" class_assignment="range 3"
seq_text="GHLYAYDWISI [BEST1_Y227]" class_assignment="range 3"
seq_text="HFVDEYDQTIE [KRAS_Y32_P34Q]" class_assignment="range 1"
seq_text="KMMGRYEMYAR [UPB1_Y362_T359M]" class_assignment="range 2"
seq_text="FTNRNYDLDFD [MYC_Y12_YF]" class_assignment="range 1"
seq_text="DPNQQYFIAMD [TBX15_Y159_H156N_YF]" class_assignment="range 1"
seq_text="DTDSSYCIPTA [GAB1_Y373]" class_assignment="range 2"
seq_text="MSRDVYSTDFF [NTRK2_Y702_YF]" class_assignment="range 1"
seq_text="AKAEICEMRPL [COX10_Y97_Y97C]" class_assignment="range 2"
seq_text="MFVKSYTIHFS [F5_Y2153_YF]" class_assignment="range 2"
seq_text="LGGAMYYLEAD [PKHD1_Y452_E457D]" class_assignment="range 2"
seq_text="TGNGYYFRVFS [MYBPC3_Y1136_I1131T]" class_assignment="range 2"
seq_text="FSNPAYFVLEG [INPPL1_Y986_N982S_YF]" class_assignment="range 3"
